Target: Mu-type opioid receptor (Cavia porcellus, UniProt P97266)
Sequence (P97266 whole entry): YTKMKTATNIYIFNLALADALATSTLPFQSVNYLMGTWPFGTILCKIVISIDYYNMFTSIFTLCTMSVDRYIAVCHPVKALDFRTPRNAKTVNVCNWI

>  <compound>
CC[C@@H]1CN2CCc3c([nH]c4cccc(OC)c34)[C@@H]2C[C@@H]1/C(=C\OC)C(=O)OC

>  <Ki (nM)>
7.24

$$$$
>  <compound>
CC[C@@H]1CN2CCc3c([nH]c4cccc(O)c34)[C@@H]2C[C@@H]1/C(=C\OC)C(=O)OC

>  <Ki (nM)>
12

$$$$
>  <compound>
CC[C@@H]1CN2CC[C@@]3(O)C(=Nc4cccc(OC)c43)[C@@H]2C[C@@H]1/C(=C\OC)C(=O)OC

>  <Ki (nM)>
13.5

$$$$
>  <compound>
CC[C@@H]1CN2CCc3c([nH]c4ccccc34)[C@@H]2C[C@@H]1/C(=C\OC)C(=O)OC [CORYNANRHEIDINE]

>  <Ki (nM)>
72.4

$$$$
>  <compound>
CC[C@@H]1CN2CC[C@]3(Nc4cccc(OC)c4C3=O)[C@@H]2C[C@@H]1/C(=C\OC)C(=O)OC

>  <Ki (nM)>
0.0871

$$$$

###

Molecular target: Mu-type opioid receptor (Cavia porcellus) (UniProt P97266)
Sequence (P97266 whole entry): as above
Assay: Relative affinity evaluated for Opioid receptor mu 1
Here, each record is paired with measured Relative affinity data.

>  <molecule>
CC[C@@H]1CN2CCc3c([nH]c4cccc(O)c34)[C@@H]2C[C@@H]1/C(=C\OC)C(=O)OC

>  <unit.of.measurement>
%

>  <Relative affinity>
99.6

$$$$
>  <molecule>
CC[C@@H]1CN2CC[C@]3(Nc4cccc(OC)c4C3=O)[C@@H]2C[C@@H]1/C(=C\OC)C(=O)OC

>  <unit.of.measurement>
%

>  <Relative affinity>
97.1

$$$$
>  <molecule>
CC[C@@H]1CN2CCc3c([nH]c4cccc(OC)c34)[C@@H]2C[C@@H]1/C(=C\OC)C(=O)OC

>  <unit.of.measurement>
%

>  <Relative affinity>
88.7

$$$$
>  <molecule>
CC[C@@H]1CN2CCc3c([nH]c4ccccc34)[C@@H]2C[C@@H]1/C(=C\OC)C(=O)OC [CORYNANRHEIDINE]

>  <unit.of.measurement>
%

>  <Relative affinity>
95.8

$$$$
>  <molecule>
CC[C@@H]1CN2CC[C@@]3(O)C(=Nc4cccc(OC)c43)[C@@H]2C[C@@H]1/C(=C\OC)C(=O)OC

>  <unit.of.measurement>
%

>  <Relative affinity>
83.3

$$$$

###

Species: Cavia porcellus
Test: activity evaluated by its ability to inhibit the electrically induced twitch contraction in guinea pig ileum, which is reversed by naloxone (300 nM)(P < 0.001)
Type: functional
Here, each record is paired with measured pD2 data.

>  <molecule>
CC[C@@H]1CN2CC3=C(O)C4C(OC)=CC=CC4N=C3[C@@H]2C[C@@H]1/C(=C\OC)C(=O)OC (some centres undefined)

>  <pD2>
6.7

$$$$
>  <molecule>
CCO[C@]12CCN3C[C@@H](CC)[C@@H](/C(=C\OC)C(=O)OC)C[C@H]3C1=Nc1cccc(OC)c12

>  <pD2>
5.29

$$$$
>  <molecule>
CC[C@@H]1CN2CCc3c([nH]c4cccc(OC)c34)[C@H]2C[C@@H]1/C(=C/OC)C(=O)OC

>  <pD2>
5.4

$$$$
>  <molecule>
CC[C@@H]1CN2CC[C@@]3(OC)C(=Nc4cccc(OC)c43)[C@@H]2C[C@@H]1/C(=C\OC)C(=O)OC

>  <pD2>
6.45

$$$$

###

Here, each record is paired with measured Relative affinity data.
System: Delta-type opioid receptor
Experiment: Relative affinity evaluated for Opioid receptor delta 1
Details: Cavia porcellus

>  <given.smiles>
CC[C@@H]1CN2CC[C@@]3(O)C(=Nc4cccc(OC)c43)[C@@H]2C[C@@H]1/C(=C\OC)C(=O)OC

>  <comparison.operator>
=

>  <Relative affinity [%]>
6.6

$$$$
>  <given.smiles>
CC[C@@H]1CN2CCc3c([nH]c4cccc(O)c34)[C@@H]2C[C@@H]1/C(=C\OC)C(=O)OC

>  <comparison.operator>
<

>  <Relative affinity [%]>
0.1

$$$$
>  <given.smiles>
CC[C@@H]1CN2CC[C@]3(Nc4cccc(OC)c4C3=O)[C@@H]2C[C@@H]1/C(=C\OC)C(=O)OC

>  <comparison.operator>
=

>  <Relative affinity [%]>
2.8

$$$$
>  <given.smiles>
CC[C@@H]1CN2CCc3c([nH]c4cccc(OC)c34)[C@@H]2C[C@@H]1/C(=C\OC)C(=O)OC

>  <comparison.operator>
=

>  <Relative affinity [%]>
10.7

$$$$
>  <given.smiles>
CC[C@@H]1CN2CCc3c([nH]c4ccccc34)[C@@H]2C[C@@H]1/C(=C\OC)C(=O)OC

>  <comparison.operator>
=

>  <Relative affinity [%]>
1

$$$$
